MBC values by entry
system: Haemophilus influenzae; assay: Bactericidal activity against azithromycin-susceptible Haemophilus influenzae ATCC 49247 assessed as reduction in colony formation incubated in HTM broth medium for 20 to 24 hrs followed by 24 hrs subculturing in the medium without test compound; type: functional
Measure: MBC (µg/mL)

1. CC[C@H]1OC(=O)[C@H](C)[C@@H](OC(=O)CCNCCCc2ccc(-n3ccnc3)cc2)[C@H](C)[C@@H](O[C@@H]2O[C@H](C)C[C@H](N(C)C)[C@H]2O)[C@](C)(OC)C[C@@H](C)/C(=N\OC)[C@H](C)[C@H]2OC(=O)O[C@@]21C; 256
2. C#CCNCCC(=O)O[C@H]1[C@H](C)[C@@H](O[C@@H]2O[C@H](C)C[C@H](N(C)C)[C@H]2O)[C@](C)(OC)C[C@@H](C)/C(=N\OC)[C@H](C)[C@H]2OC(=O)O[C@]2(C)[C@@H](CC)OC(=O)[C@@H]1C; 128
